measurementProtocol: Ex vivo biodistribution in mice with MM1S tumor xenografts
runParameters: both sexes, NSG, mouse, spleen, 80 µCi, total radioactivity, 30 min p.i.; MM1S xenograft mice; read-out: uptake in spleen
measuredQuantity: tissue uptake at 0.5 h
State the result as a value with its unit after it.

Task: Would you mind telling me what tissue uptake at 0.5 h value was observed for CC[C@H](C)[C@@H]1NC(=O)[C@@H]2CCCN2C(=O)[C@H](Cc2ccccc2)NC(=O)[C@H](CC(=O)O)NC(=O)[C@H](C)NC(=O)[C@@H]2CSCc3cc(cc(c3)CSC[C@H](NC(=O)[C@H](C)NC(=O)CCOCCOCCOCCNC(=O)CN3CCN(CC(=O)O)CCN(CC(=O)O)CC3)C(=O)N[C@@H](C(C)C)C(=O)N3CCC[C@H]3C(=O)N2)CSC[C@@H](C(N)=O)NC(=O)[C@H](Cc2ccc(O)cc2)NC(=O)[C@H](Cc2c[nH]c3ccccc23)NC1=O [[^68Ga]Ga‐AJ206, metal not drawn] ?
Result: 1.21 %ID/g

* * *

measurementProtocol: Ex vivo biodistribution in mice with MM1S tumor xenografts
runParameters: both sexes, NSG, mouse, pancreas, 80 µCi, total radioactivity, 90 min p.i.; MM1S xenograft mice; read-out: uptake in pancreas
measuredQuantity: tissue uptake at 1.5 h (%ID/g)
Only the number, expressed in %ID/g, is required.

Task: Would you mind telling me what tissue uptake at 1.5 h value was observed for CC[C@H](C)[C@@H]1NC(=O)[C@@H]2CCCN2C(=O)[C@H](Cc2ccccc2)NC(=O)[C@H](CC(=O)O)NC(=O)[C@H](C)NC(=O)[C@@H]2CSCc3cc(cc(c3)CSC[C@H](NC(=O)[C@H](C)NC(=O)CCOCCOCCOCCNC(=O)CN3CCN(CC(=O)O)CCN(CC(=O)O)CC3)C(=O)N[C@@H](C(C)C)C(=O)N3CCC[C@H]3C(=O)N2)CSC[C@@H](C(N)=O)NC(=O)[C@H](Cc2ccc(O)cc2)NC(=O)[C@H](Cc2c[nH]c3ccccc23)NC1=O [[^68Ga]Ga‐AJ206, metal not drawn] ?
Result: 0.26

* * *

measurementProtocol: Ex vivo biodistribution in mice with MM1S tumor xenografts
runParameters: both sexes, NSG, mouse, heart, 2 mg/kg, 60 min p.i.; MM1S xenograft mice with blocking dose (2 mg kg^−1 AJ206); read-out: uptake in heart
measuredQuantity: tissue uptake at 1 h (%ID/g)
Only the number, expressed in %ID/g, is required.

Task: Would you mind telling me what tissue uptake at 1 h value was observed for CC[C@H](C)[C@@H]1NC(=O)[C@@H]2CCCN2C(=O)[C@H](Cc2ccccc2)NC(=O)[C@H](CC(=O)O)NC(=O)[C@H](C)NC(=O)[C@@H]2CSCc3cc(cc(c3)CSC[C@H](NC(=O)[C@H](C)NC(=O)CCOCCOCCOCCNC(=O)CN3CCN(CC(=O)O)CCN(CC(=O)O)CC3)C(=O)N[C@@H](C(C)C)C(=O)N3CCC[C@H]3C(=O)N2)CSC[C@@H](C(N)=O)NC(=O)[C@H](Cc2ccc(O)cc2)NC(=O)[C@H](Cc2c[nH]c3ccccc23)NC1=O [[^68Ga]Ga‐AJ206, metal not drawn] ?
Result: 0.33

* * *

measurementProtocol: Ex vivo biodistribution in mice with MM1S tumor xenografts
runParameters: both sexes, NSG, mouse, femur, 80 µCi, 5 min p.i.; MM1S xenograft mice; read-out: uptake in femur
measuredQuantity: tissue uptake at 5 min (%ID/g)
Only the number, expressed in %ID/g, is required.

Task: Would you mind telling me what tissue uptake at 5 min value was observed for CC[C@H](C)[C@@H]1NC(=O)[C@@H]2CCCN2C(=O)[C@H](Cc2ccccc2)NC(=O)[C@H](CC(=O)O)NC(=O)[C@H](C)NC(=O)[C@@H]2CSCc3cc(cc(c3)CSC[C@H](NC(=O)[C@H](C)NC(=O)CCOCCOCCOCCNC(=O)CN3CCN(CC(=O)O)CCN(CC(=O)O)CC3)C(=O)N[C@@H](C(C)C)C(=O)N3CCC[C@H]3C(=O)N2)CSC[C@@H](C(N)=O)NC(=O)[C@H](Cc2ccc(O)cc2)NC(=O)[C@H](Cc2c[nH]c3ccccc23)NC1=O [[^68Ga]Ga‐AJ206, metal not drawn] ?
Result: 3.37

* * *

measurementProtocol: Ex vivo biodistribution in mice with MM1S tumor xenografts
runParameters: female, NSG, mouse, ovary, 80 µCi, 120 min p.i.; MM1S xenograft mice; read-out: uptake in ovary
measuredQuantity: tissue uptake at 2 h

Task: Would you mind telling me what tissue uptake at 2 h value was observed for CC[C@H](C)[C@@H]1NC(=O)[C@@H]2CCCN2C(=O)[C@H](Cc2ccccc2)NC(=O)[C@H](CC(=O)O)NC(=O)[C@H](C)NC(=O)[C@@H]2CSCc3cc(cc(c3)CSC[C@H](NC(=O)[C@H](C)NC(=O)CCOCCOCCOCCNC(=O)CN3CCN(CC(=O)O)CCN(CC(=O)O)CC3)C(=O)N[C@@H](C(C)C)C(=O)N3CCC[C@H]3C(=O)N2)CSC[C@@H](C(N)=O)NC(=O)[C@H](Cc2ccc(O)cc2)NC(=O)[C@H](Cc2c[nH]c3ccccc23)NC1=O [[^68Ga]Ga‐AJ206, metal not drawn] ?
Result: 0.45 %ID/g

* * *

measurementProtocol: Ex vivo biodistribution in mice with MM1S tumor xenografts
runParameters: both sexes, NSG, mouse, muscle, 80 µCi, 30 min p.i.; MM1S xenograft mice; read-out: uptake in muscle
measuredQuantity: tissue uptake at 0.5 h

Task: Would you mind telling me what tissue uptake at 0.5 h value was observed for CC[C@H](C)[C@@H]1NC(=O)[C@@H]2CCCN2C(=O)[C@H](Cc2ccccc2)NC(=O)[C@H](CC(=O)O)NC(=O)[C@H](C)NC(=O)[C@@H]2CSCc3cc(cc(c3)CSC[C@H](NC(=O)[C@H](C)NC(=O)CCOCCOCCOCCNC(=O)CN3CCN(CC(=O)O)CCN(CC(=O)O)CC3)C(=O)N[C@@H](C(C)C)C(=O)N3CCC[C@H]3C(=O)N2)CSC[C@@H](C(N)=O)NC(=O)[C@H](Cc2ccc(O)cc2)NC(=O)[C@H](Cc2c[nH]c3ccccc23)NC1=O [[^68Ga]Ga‐AJ206, metal not drawn] ?
Result: 0.55 %ID/g

* * *

measurementProtocol: Ex vivo biodistribution in mice with MM1S tumor xenografts
runParameters: female, NSG, mouse, ovary, 80 µCi, 30 min p.i.; MM1S xenograft mice; read-out: uptake in ovary
measuredQuantity: tissue uptake at 0.5 h (%ID/g)
Only the number, expressed in %ID/g, is required.

Task: Would you mind telling me what tissue uptake at 0.5 h value was observed for CC[C@H](C)[C@@H]1NC(=O)[C@@H]2CCCN2C(=O)[C@H](Cc2ccccc2)NC(=O)[C@H](CC(=O)O)NC(=O)[C@H](C)NC(=O)[C@@H]2CSCc3cc(cc(c3)CSC[C@H](NC(=O)[C@H](C)NC(=O)CCOCCOCCOCCNC(=O)CN3CCN(CC(=O)O)CCN(CC(=O)O)CC3)C(=O)N[C@@H](C(C)C)C(=O)N3CCC[C@H]3C(=O)N2)CSC[C@@H](C(N)=O)NC(=O)[C@H](Cc2ccc(O)cc2)NC(=O)[C@H](Cc2c[nH]c3ccccc23)NC1=O [[^68Ga]Ga‐AJ206, metal not drawn] ?
Result: 1.48

* * *

measurementProtocol: Ex vivo biodistribution in mice with MM1S tumor xenografts
runParameters: both sexes, NSG, mouse, spleen, 80 µCi, total radioactivity, 60 min p.i.; MM1S xenograft mice; read-out: uptake in spleen
measuredQuantity: tissue uptake at 1 h

Task: Would you mind telling me what tissue uptake at 1 h value was observed for CC[C@H](C)[C@@H]1NC(=O)[C@@H]2CCCN2C(=O)[C@H](Cc2ccccc2)NC(=O)[C@H](CC(=O)O)NC(=O)[C@H](C)NC(=O)[C@@H]2CSCc3cc(cc(c3)CSC[C@H](NC(=O)[C@H](C)NC(=O)CCOCCOCCOCCNC(=O)CN3CCN(CC(=O)O)CCN(CC(=O)O)CC3)C(=O)N[C@@H](C(C)C)C(=O)N3CCC[C@H]3C(=O)N2)CSC[C@@H](C(N)=O)NC(=O)[C@H](Cc2ccc(O)cc2)NC(=O)[C@H](Cc2c[nH]c3ccccc23)NC1=O [[^68Ga]Ga‐AJ206, metal not drawn] ?
Result: 0.41 %ID/g

* * *

measurementProtocol: Ex vivo biodistribution in mice with MM1S tumor xenografts
runParameters: both sexes, NSG, mouse, tumor, 80 µCi, total radioactivity, 30 min p.i.; MM1S xenograft mice; read-out: uptake in tumor
measuredQuantity: tissue uptake at 0.5 h (%ID/g)
Only the number, expressed in %ID/g, is required.

Task: Would you mind telling me what tissue uptake at 0.5 h value was observed for CC[C@H](C)[C@@H]1NC(=O)[C@@H]2CCCN2C(=O)[C@H](Cc2ccccc2)NC(=O)[C@H](CC(=O)O)NC(=O)[C@H](C)NC(=O)[C@@H]2CSCc3cc(cc(c3)CSC[C@H](NC(=O)[C@H](C)NC(=O)CCOCCOCCOCCNC(=O)CN3CCN(CC(=O)O)CCN(CC(=O)O)CC3)C(=O)N[C@@H](C(C)C)C(=O)N3CCC[C@H]3C(=O)N2)CSC[C@@H](C(N)=O)NC(=O)[C@H](Cc2ccc(O)cc2)NC(=O)[C@H](Cc2c[nH]c3ccccc23)NC1=O [[^68Ga]Ga‐AJ206, metal not drawn] ?
Result: 4.15

Where do the numbers come from? From paper PMC11040352.
